Cited source: Sander's compilation of Henry's law constants (doi:10.1016/0045-6535(85)90029-3)

procedure_text: Henry solubility constant Hcp at 298.15 K (mol/(m3 Pa))
test_context: reference: Oliver (1985)
measured_property: Henry solubility constant Hcp
Please give the numeric answer without any surrounding text.

Clc1ccc(Cl)cc1 has a reported Henry solubility constant Hcp of 0.0066

Measured Henry solubility constant Hcp of Clc1cccc(Cl)c1 : 0.0055

The compound listed as Clc1cc(Cl)c(Cl)cc1Cl shows Henry solubility constant Hcp equal to 0.0099

Notebook: Clc1ccc(Cl)c(-c2cc(Cl)ccc2Cl)c1 , Henry solubility constant Hcp read as 0.082

For this compound ( Clc1ccc(Cl)c(-c2cc(Cl)c(Cl)cc2Cl)c1 ), measured Henry solubility constant Hcp is 0.14

###

procedure_text: Henry solubility constant Hcp at 298.15 K (mol/(m3 Pa))
test_context: reference: Oliver (1985)
measured_property: Henry solubility constant Hcp
Would you mind answering with just the numeric figure?

Memo: Cc1c(Cl)c(Cl)c(Cl)c(Cl)c1Cl , reported Henry solubility constant Hcp: 0.013

response.value for Clc1cccc(-c2cccc(Cl)c2Cl)c1Cl (field: Henry solubility constant Hcp) = 0.082

get_value(item= Cc1c(Cl)ccc(Cl)c1Cl , readout=Henry solubility constant Hcp) returns 0.0066

Value of Henry solubility constant Hcp reported for the compound Clc1cccc(Cl)c1Cl is 0.011

Record Clc1cc(Cl)c(-c2cc(Cl)c(Cl)cc2Cl)cc1Cl , field Henry solubility constant Hcp: 0.16

So for ClC(Cl)=C(Cl)C(Cl)=C(Cl)Cl , the logged Henry solubility constant Hcp turned out to be 0.0023

Lab note: measured Henry solubility constant Hcp of Clc1cc(Cl)cc(Cl)c1 was 0.0052

Input Cc1cc(Cl)c(Cl)cc1Cl . Output Henry solubility constant Hcp: 0.0066

Short answer for Clc1ccc(Cl)c(-c2ccccc2Cl)c1 : Henry solubility constant Hcp was 0.049

Entry ClC(Cl)=C(Cl)c1c(Cl)c(Cl)c(Cl)c(Cl)c1Cl , Henry solubility constant Hcp reported as 0.076
